- Test system: Quadruplex DNA
- MEASUREMENT PROTOCOL: Binding affinity to human telomeric IKF1 G4 quadruplex DNA assessed as change in melting temperature at 20 uM at pH 7.4 by FRET assay
- Format: nucleic-acid assay
ΔTm strictly under -4 °C means yes (1); at -4 °C or over means no (0).

[ask] Item COC(=O)C1=CO[C@@H](O[C@@H]2O[C@H](CO)[C@@H](O)[C@H](O)[C@H]2O)[C@@H]2C(CO)=CC[C@H]12 : ΔTm beneath -4 °C, strictly?
[reply] yes (1)

[ask] Item O=c1c(-c2ccc(O)cc2)coc2cc(O[C@@H]3O[C@H](CO)[C@@H](O)[C@H](O)[C@H]3O)ccc12 : ΔTm beneath -4 °C, strictly?
[reply] no (0)

[ask] Bench note: check whether O=C(O)[C@H]1O[C@@H](Oc2cc3oc(-c4ccccc4)cc(=O)c3c(O)c2O)[C@H](O)[C@@H](O)[C@@H]1O shows ΔTm below -4 °C
[reply] no (0)

[ask] Here's an entry: O=c1c(-c2ccc(O)cc2)coc2cc(O[C@@H]3O[C@H](CO)[C@@H](O)[C@H](O)[C@H]3O)cc(O)c12 . Is its ΔTm below -4 °C?
[reply] yes (1)

[ask] Given O=c1ccc2cc(O[C@@H]3O[C@H](CO)[C@@H](O)[C@H](O)[C@H]3O)c(O)cc2o1 , is recorded ΔTm strictly lower than -4 °C?
[reply] yes (1)

[ask] Would you kindly verify if ΔTm of O=C(O)C1=CO[C@@H](O[C@@H]2O[C@H](CO)[C@@H](O)[C@H](O)[C@H]2O)[C@@H]2C(CO)=CC[C@H]12 is strictly less than -4 °C?
[reply] yes (1)
